Consider the following compounds; for each one, report its GI50.
Test system: KM-20L2
Test: NCI tumour cell line growth inhibition, 48 h
Calls of active or inactive are those of the source. Rule as the data show it: active = GI50 up to about 1.1 µM and inactive = higher.

Qu. Could you share which GI50 value was measured for `Cc1cc2cccc(Cl)c2nc1C(=O)c1ccccc1` ?
Ans. > 100 µM (inactive)

Qu. Could you share which GI50 value was measured for CC1C=CC(C(N)C(=O)O)O1 (stereo unspecified) ?
Ans. > 100 µM (inactive)

Qu. Could you share which GI50 value was measured for C#CC1(O)CCC2[C@@H]3CCc4cc(Oc5nc(F)nc(-c6c7ccccc7c(SCC)n6CCC)n5)ccc4C3CC[C@@]21C (stereo partly specified) ?
Ans. > 100 µM (inactive)

Qu. Could you share which GI50 value was measured for `CN1CCc2c1nc(-c1ccccc1)c1c2N(C)CC1` ?
Ans. 52.8 µM (inactive)

Qu. Could you share which GI50 value was measured for `Cc1nc(-n2nc(-c3ccccc3)cc2-c2ccccc2)sc1C(=O)/C=C/c1ccccc1` ?
Ans. > 100 µM (inactive)

Qu. Could you share which GI50 value was measured for `O=[N+]([O-])c1cc(/C=N\NS(=O)(=O)c2ccc(Cl)cc2)c(O)c([N+](=O)[O-])c1` ?
Ans. 28.3 µM (inactive)
